Below is a list of entries, each paired with its recorded binding signal value.
- target entity: SIX1-Q177R homeodomain (human, UniProt Q15475 108-198, Q177R)
- Sequence: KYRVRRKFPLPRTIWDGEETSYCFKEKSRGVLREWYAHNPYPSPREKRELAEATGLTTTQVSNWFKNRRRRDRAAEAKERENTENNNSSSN
- test protocol: universal protein binding microarray; Universal all-10-mer PBM (8x60K, AMADID 030236), 300 nM GST-tagged protein, Alexa Fluor 488 anti-GST; buffer, salt, pH and temperature not stated (as in Berger); high values mean tight binding
- settings: protein: ivt; tags: N-terminal GST; dsDNA, one strand shown
Whole data set: some 33,000 sequences, median “e-score” near -0.05, cut for the highest 2% near 0.38. This is one part of a sample in which the highest values are shown more often than they occur.
Express your answer in E-score, writing the number without its unit.

Solved cases (3 shown):
[[record]]
monomer_sequence = "GTCTACAC"
result_unit = "E-score"
quantitative_result = 0.42

[[record]]
monomer_sequence = "GTCTAACA"
result_unit = "E-score"
quantitative_result = 0.204

[[record]]
monomer_sequence = "GACCCGCC"
result_unit = "E-score"
quantitative_result = 0.18


In plain terms, ACTAGGTG has a documented binding signal of 0.218

In plain terms, GTCGACAC has a documented binding signal of 0.414

In plain terms, GTCCACAC has a documented binding signal of 0.211

In plain terms, AGTATACA has a documented binding signal of 0.235

====

- target entity: SIX1-Q177R homeodomain (human, UniProt Q15475 108-198, Q177R)
- Sequence: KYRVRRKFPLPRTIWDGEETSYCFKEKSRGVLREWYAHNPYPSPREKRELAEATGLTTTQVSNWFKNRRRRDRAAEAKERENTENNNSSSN
- test protocol: universal protein binding microarray; Universal all-10-mer PBM (8x60K, AMADID 030236), 300 nM GST-tagged protein, Alexa Fluor 488 anti-GST; buffer, salt, pH and temperature not stated (as in Berger); high values mean tight binding
- settings: protein: ivt; tags: N-terminal GST; dsDNA, one strand shown
In all, about 33,000 sequences were measured (“e-score”: median about -0.05, highest 2% from about 0.38 on). Many of the other results were omitted from the sample, so the highest values are more common in it than they were.
Below is a list of entries, each paired with its recorded binding signal value.
Respond with the figure and its unit, in that order.

Solved cases (5 shown):
[[record]]
monomer_sequence = "ATTTTACA"
reported_property = "binding signal"
result = "0.19 E-score"

[[record]]
monomer_sequence = "CACGTCCC"
reported_property = "binding signal"
result = "0.165 E-score"

[[record]]
monomer_sequence = "ACAGAGGT"
reported_property = "binding signal"
result = "0.156 E-score"

[[record]]
monomer_sequence = "GATCCACA"
reported_property = "binding signal"
result = "0.157 E-score"

[[record]]
monomer_sequence = "AGACTCGG"
reported_property = "binding signal"
result = "0.16 E-score"


Then this sequence:
In plain terms, GCAATACC has a documented binding signal of 0.166 E-score

====

- target entity: SIX1-Q177R homeodomain (human, UniProt Q15475 108-198, Q177R)
- Sequence: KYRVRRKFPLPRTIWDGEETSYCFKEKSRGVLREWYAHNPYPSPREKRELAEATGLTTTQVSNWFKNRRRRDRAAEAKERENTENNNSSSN
- test protocol: universal protein binding microarray; Universal all-10-mer PBM (8x60K, AMADID 030236), 300 nM GST-tagged protein, Alexa Fluor 488 anti-GST; buffer, salt, pH and temperature not stated (as in Berger); high values mean tight binding
- settings: protein: ivt; tags: N-terminal GST; dsDNA, one strand shown
Whole data set: some 33,000 sequences, median “e-score” near -0.05, cut for the highest 2% near 0.38. This excerpt belongs to a sample that is enriched for the highest values.
reported property: binding signal (E-score)
Express your answer in E-score, writing the number without its unit.

Solved cases (2 shown):
[[record]]
monomer_sequence = "ACCGTTGG"
target_entity = "SIX1-Q177R homeodomain (human, UniProt Q15475 108-198, Q177R)"
quantitative_result = 0.216

[[record]]
monomer_sequence = "GACACGAA"
target_entity = "SIX1-Q177R homeodomain (human, UniProt Q15475 108-198, Q177R)"
quantitative_result = 0.331


In plain terms, TACACGGA has a documented binding signal of 0.402

In plain terms, AAAAGGTG has a documented binding signal of 0.195

In plain terms, ACGATGGG has a documented binding signal of 0.151
